system: IKK-epsilon; construct: gene IKBKE; settings: concentration: 1 μM, replicates: in singlicate; n = 1;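 further: KINOMEscan kinase panel screen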
Quick reference for %Inh among some molecules
measure: %Inh (%)

molecule="Cn1cc(-c2ccc3c(c2)CCN3C(=O)Cc2cc(F)cc(F)c2F)c2c(N)ncnc21 [GSK2634140]" measure=%Inh data_value=75
molecule="Cc1ccc(NC(=O)c2cccc(N3CCCCC3)c2)cc1-c1ccc(C(=O)NCC2CC2)cc1 [GSK1917008]" measure=%Inh data_value=15
molecule="CN(C)c1ncnc2nc[nH]c12 [SKF-31736]" measure=%Inh data_value=0
molecule="CCOc1nccc(-c2c(-c3ccc(F)cc3)ncn2C2CCNCC2)n1 [SB-249175]" measure=%Inh data_value=6

----------
system: RPS6KA4(Kin.Dom.2-C-terminal); settings: concentration: 1 μM, replicates: in singlicate; n = 1
Quick reference: %Inh of the listed items.
measure: %Inh (%)

molecule="Cn1cc(-c2ccc3c(c2)CCN3C(=O)Cc2cc(F)cc(C(F)(F)F)c2)c2c(N)ncnc21 [GSK2635225]" units_label=% data_value=0
molecule="CN(c1ccc(NC(=O)N2CCN(CCCN3CCOCC3)CC2)cc1)c1ccnc(Nc2ccc(CS(C)(=O)=O)cc2)n1.Cl [GW830899]" units_label=% data_value=0
molecule="Cc1ccc(NC(=O)c2ccc(Cl)c(Cl)c2)cc1-c1ccc(C(=O)Nc2ccncc2)cc1 [GSK1398460]" units_label=% data_value=0
molecule="Cc1ccc(Nc2ccnc(Nc3ccc(C)c(F)c3)n2)cc1O.Cl [GW582868]" units_label=% data_value=0
molecule="Cl.Cl.NC(CNC(=O)c1cc(Br)c(-c2ccnc3[nH]ccc23)s1)c1ccccc1 (stereo not drawn) [GSK1322949]" units_label=% data_value=62
molecule="Nc1ncc(-c2cn[nH]c2)c2scc(-c3ccc4c(c3)CCN4C(=O)Cc3ccccc3)c12 [GSK2593067]" units_label=% data_value=0
molecule="Cc1ccccc1CC(=O)N1CCc2cc(-c3cn(C)c4ncnc(N)c34)ccc21 [GSK2603346]" units_label=% data_value=0
molecule=CS(=O)(=O)c1cccc(CNc2nc(Nc3ccc4c(c3)CCC(=O)N4)ncc2C(F)(F)F)c1 units_label=% data_value=0
molecule="Cc1cccc(Nc2nc(N[C@H]3CCCC[C@H]3N)ncc2C(N)=O)c1.Cl [GSK986310]" units_label=% data_value=0
molecule=CCNc1nccc(-c2c(-c3ccc(F)cc3)ncn2C2CCN(C)CC2)n1 units_label=% data_value=0
molecule="Nc1ncnc2scc(-c3ccc(NC(=O)Cc4cc(F)ccc4F)cc3)c12.O=C(O)C(F)(F)F [SB-731254-M]" units_label=% data_value=15
molecule="Fc1cc(Cl)ccc1Nc1ccnc2cc(-c3ccc(CN4CCOCC4)o3)ccc12 [GW560109]" units_label=% data_value=0

----------
The entries below are paired with their reported %Inh.
system: STK16; conditions: concentration: 1 μM, replicates: in singlicate; n = 1
measure: %Inh (%)

chem_smiles=O=C(Nc1n[nH]c2cc(-c3cccs3)ccc12)C1CC1 units_label=% data_value=4
chem_smiles=CCNC(=O)/C=C/c1n[nH]c2cc(Sc3ccccc3C(=O)NC)ccc12 units_label=% data_value=10
chem_smiles=CN(c1ccc(NC(=O)N2CCN(CCCN3CCOCC3)CC2)cc1)c1ccnc(Nc2ccc(CS(C)(=O)=O)cc2)n1.Cl units_label=% data_value=74
chem_smiles=Nc1cccc(-c2ccc3c(N)n[nH]c3c2)c1 units_label=% data_value=15
